molecular target: ΔF508-CFTR (Homo sapiens, UniProt P13569, DEL508-508); construct: host or cells: CFBE41o-, doxycycline-inducible; experiment: CFTR cell surface levels using HRP-tagged ΔF508-CFTR expressing CFBE cells, in the presence of a co-corrector; assay type: cell-based; settings: HRP-tagged ΔF508-CFTR expressing CFBE cells, in the presence of 3 μM co-corrector; read-out: EC50
Sequence (P13569 with tags, fused parts or gaps DEL508-508): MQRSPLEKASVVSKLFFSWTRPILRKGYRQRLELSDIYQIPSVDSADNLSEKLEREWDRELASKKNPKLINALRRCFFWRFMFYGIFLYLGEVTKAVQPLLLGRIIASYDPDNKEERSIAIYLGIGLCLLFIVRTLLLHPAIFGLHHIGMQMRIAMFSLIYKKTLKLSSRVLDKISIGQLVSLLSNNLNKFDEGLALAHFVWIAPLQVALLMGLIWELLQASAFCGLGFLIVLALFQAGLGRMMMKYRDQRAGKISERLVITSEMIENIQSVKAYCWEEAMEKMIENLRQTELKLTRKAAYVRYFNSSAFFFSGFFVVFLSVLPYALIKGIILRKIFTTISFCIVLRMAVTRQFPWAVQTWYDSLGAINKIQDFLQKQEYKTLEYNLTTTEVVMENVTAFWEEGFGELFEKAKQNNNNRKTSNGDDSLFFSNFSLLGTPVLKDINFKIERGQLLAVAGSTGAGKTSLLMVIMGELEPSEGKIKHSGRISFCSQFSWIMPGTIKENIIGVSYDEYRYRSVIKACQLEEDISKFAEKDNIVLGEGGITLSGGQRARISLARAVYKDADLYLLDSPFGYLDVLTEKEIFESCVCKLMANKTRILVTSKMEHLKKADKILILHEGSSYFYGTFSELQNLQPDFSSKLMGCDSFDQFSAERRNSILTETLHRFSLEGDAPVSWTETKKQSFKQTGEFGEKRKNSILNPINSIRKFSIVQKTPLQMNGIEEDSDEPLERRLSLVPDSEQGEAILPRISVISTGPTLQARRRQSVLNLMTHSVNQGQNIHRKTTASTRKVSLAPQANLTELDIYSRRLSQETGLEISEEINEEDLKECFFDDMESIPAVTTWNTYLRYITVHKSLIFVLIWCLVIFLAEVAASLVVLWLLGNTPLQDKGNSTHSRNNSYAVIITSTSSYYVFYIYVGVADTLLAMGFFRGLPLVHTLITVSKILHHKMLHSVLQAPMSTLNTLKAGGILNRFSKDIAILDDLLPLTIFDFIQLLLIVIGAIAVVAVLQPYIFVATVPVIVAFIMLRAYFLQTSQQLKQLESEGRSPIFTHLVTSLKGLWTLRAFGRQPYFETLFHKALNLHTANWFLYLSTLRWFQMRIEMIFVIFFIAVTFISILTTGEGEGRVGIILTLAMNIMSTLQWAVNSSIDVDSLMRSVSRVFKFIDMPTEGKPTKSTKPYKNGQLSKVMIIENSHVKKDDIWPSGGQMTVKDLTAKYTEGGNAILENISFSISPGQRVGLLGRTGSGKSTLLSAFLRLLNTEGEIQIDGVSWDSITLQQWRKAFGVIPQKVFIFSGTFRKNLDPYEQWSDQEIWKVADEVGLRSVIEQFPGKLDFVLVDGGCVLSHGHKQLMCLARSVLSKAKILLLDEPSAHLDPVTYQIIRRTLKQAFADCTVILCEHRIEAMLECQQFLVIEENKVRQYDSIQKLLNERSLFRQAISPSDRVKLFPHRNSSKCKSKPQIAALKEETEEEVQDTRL
Recorded EC50 values for a group of molecules are listed next.

**Query** Please give the measured EC50 for this molecule: O=C(O)c1cc(N2CC3(CCCCC3)C2)c2c(C3CCC3)nn(-c3ccccc3)c2n1 [compound 409]
**Result** 1110 nM

----------
molecular target: ΔF508-CFTR (Homo sapiens, UniProt P13569, DEL508-508); construct: host or cells: CFBE41o-, doxycycline-inducible; test: CFTR cell surface levels using HRP-tagged ΔF508-CFTR expressing CFBE cells, intrinsic corrector capacity; type: cell-based; conditions: HRP-tagged ΔF508-CFTR CFBE41o- cells, compounds alone (intrinsic corrector capacity), 20 hours at 33° C.; read-out: EC50
Endpoint: EC50

Please review the entries below; each comes with its answer.
| Compound | Endpoint | Readout value |
| --- | --- | --- |
| Cc1nn(-c2ccccc2)c2nc(C(=O)O)cc(C3CCN(CC#N)CC3)c12 [compound 139] | EC50 | > 10 µM |
| Cc1nn(-c2ccccc2)c2nc(C(=O)O)cc(N3CCCCC3=O)c12 [compound 150] | EC50 | > 10 µM |

**Query** Please give the measured EC50 for this compound: CN(C)Cc1nn(-c2ccccc2)c2nc(C(=O)O)cc(-c3ccc(N4CCOCC4)cc3)c12 [compound 87]
**Result** > 10 µM

----------
molecular target: ΔF508-CFTR (Homo sapiens, UniProt P13569, DEL508-508); construct: host or cells: CFBE41o-, doxycycline-inducible; test: CFTR cell surface levels using HRP-tagged ΔF508-CFTR expressing CFBE cells, intrinsic corrector capacity; assay type: cell-based; settings: HRP-tagged ΔF508-CFTR CFBE41o- cells, compounds alone (intrinsic corrector capacity), 20 hours at 33° C.; read-out: EC50
Endpoint: pEC50
Please report pEC50 as the negative decimal logarithm of the molar concentration, giving only the number.

Please review the entries below; each comes with its answer.
| Compound | Endpoint | Readout value |
| --- | --- | --- |
| Cc1nn(-c2ccccc2)c2nc(C(=O)O)cc(-c3ccc(N(C)C4COC4)cc3)c12 [compound 140] | pEC50 | 5.82 |
| Cc1nn(-c2ccccc2)c2nc(C(=O)O)cc(N3CCOCC3)c12 [compound 118] | pEC50 | 5.18 |

**Query** What value of pEC50 on ΔF508-CFTR (Homo sapiens, UniProt P13569, DEL508-508) does COc1cc(-n2nc(C)c3c(-c4ccc(N5CCOCC5)cc4)cc(C(=O)O)nc32)ccn1 [compound 51] have?
**Result** 5.93

**Query** What value of pEC50 on ΔF508-CFTR (Homo sapiens, UniProt P13569, DEL508-508) does Cc1nn(-c2ccccc2)c2nc(C(=O)O)cc(OCC3CCC(F)(F)C3)c12 (stereo not drawn) [compound 382] have?
**Result** 5.78

**Query** What value of pEC50 on ΔF508-CFTR (Homo sapiens, UniProt P13569, DEL508-508) does CC(C)c1nn(-c2cccc(N3CCOCC3)c2)c2nc(C(=O)O)cc(-c3ccc(N4CCC(C#N)CC4)nc3)c12 [compound 178] have?
**Result** 6.20

**Query** What value of pEC50 on ΔF508-CFTR (Homo sapiens, UniProt P13569, DEL508-508) does Cc1nn(-c2ccccc2)c2nc(C(=O)O)cc(-c3ccc(N4CCCC4)cc3)c12 [compound 25] have?
**Result** 5.82

**Query** What value of pEC50 on ΔF508-CFTR (Homo sapiens, UniProt P13569, DEL508-508) does CC(C)c1nn(-c2cc(Cl)ccn2)c2nc(C(=O)O)cc(-c3ccc(N4CCOCC4)cc3)c12 [compound 229] have?
**Result** 5.67

**Query** What value of pEC50 on ΔF508-CFTR (Homo sapiens, UniProt P13569, DEL508-508) does CC(C)c1nn(C2CCCCC2)c2nc(C(=O)O)cc(-c3cnc(N(C)C)nc3)c12 [compound 62] have?
**Result** 5.58

**Query** What value of pEC50 on ΔF508-CFTR (Homo sapiens, UniProt P13569, DEL508-508) does Cc1cc(C)cc(-n2nc(C)c3c(-c4ccc(N5CCOCC5)cc4)cc(C(=O)O)nc32)c1 [compound 30] have?
**Result** 5.92

----------
Target: ΔF508-CFTR (Homo sapiens, UniProt P13569, DEL508-508)
Construct: host or cells: CFBE41o-, doxycycline-inducible
Assay: CFTR cell surface levels using HRP-tagged ΔF508-CFTR expressing CFBE cells, intrinsic corrector capacity
Assay type: cell-based
Settings: HRP-tagged ΔF508-CFTR expressing CFBE cells; intrinsic corrector capacity (no co-corrector); 33° C., 20 hours; read-out: EC50
Text: Measuring CFTR Cell Surface Levels Using HRP-Tagged AF508-CFTR Expressing CFBE Cells The HRP-tagged AF508-CFTR cell assay measures the expression of CFTR-ΔF508 at the plasma membrane. […] When HRP-tagged AF508-CFTR is present at the plasma membrane, the HRP enzyme activity can be measured. The amount of CFTR-ΔF508 that can be rescued to the plasma membrane is correlated with the amount of functional enzyme that can be measured. […]
Endpoint: EC50 (µM)
Number only, in µM; omit the unit.

Please review the entries below; each comes with its answer.
| Compound | System tested | Units of measure | EC50 |
| --- | --- | --- | --- |
| CC(C)c1nn(-c2ccc(F)cc2)c2nc(C(=O)O)cc(N3CC[C@@H](N4CCCCC4)C3)c12 | ΔF508-CFTR (Homo sapiens, UniProt P13569, DEL508-508) | µM | 1.16 |
| O=C(O)c1cc(N2CC3(CCC3)C2)c2c(C3CCC3)nn(-c3ccccc3)c2n1 | ΔF508-CFTR (Homo sapiens, UniProt P13569, DEL508-508) | µM | 0.998 |
| O=C(O)c1cc(OCC2CCCCC2)c2c(C3CCC3)nn(-c3ccccc3)c2n1 | ΔF508-CFTR (Homo sapiens, UniProt P13569, DEL508-508) | µM | 0.925 |
| O=C(O)c1cc(N2CCC(CN3CC4(CCCOC4)C3)CC2)c2c(C3CCC3)nn(-c3ccccc3)c2n1 | ΔF508-CFTR (Homo sapiens, UniProt P13569, DEL508-508) | µM | 0.486 |
| N#CC1CN(C2CCN(c3cc(C(=O)O)nc4c3c(C3CCC3)nn4-c3ccc(F)cc3)CC2)CCO1 (stereo not drawn) | ΔF508-CFTR (Homo sapiens, UniProt P13569, DEL508-508) | µM | 0.244 |
| CC1CN(C2CCN(c3cc(C(=O)O)nc4c3c(C3CCC3)nn4-c3ccccc3)CC2)CC(C)O1 (stereo not drawn) | ΔF508-CFTR (Homo sapiens, UniProt P13569, DEL508-508) | µM | 0.247 |

**Query** Please give the measured EC50 for this compound: N#CC1CCN(c2cc(C(=O)O)nc3c2c(C2CCC2)nn3-c2ccccc2)CC1
**Result** 0.557

**Query** Please give the measured EC50 for this compound: CC(C)c1nn(-c2ccc(F)cc2)c2nc(C(=O)O)cc(N3CCC4(CCN(C)CC4)CC3)c12
**Result** 1.67

**Query** Please give the measured EC50 for this compound: CC(C)c1nn(-c2ccc(F)cc2)c2nc(C(=O)O)cc(N3CCC(CCN4CCN(C)CC4)CC3)c12
**Result** 0.622

**Query** Please give the measured EC50 for this compound: CC(C)N1CCN(c2ccc(-c3cc(C(=O)O)nc4c3c(C3CCC3)nn4C3CCCCC3)cc2)CC1
**Result** 1.41

**Query** Please give the measured EC50 for this compound: CC(C)c1nn(-c2ccc(F)cc2)c2nc(C(=O)O)cc(N3CCC(CN4CCCCC4)CC3)c12
**Result** 0.294

**Query** Please give the measured EC50 for this compound: O=C(O)c1cc(OCC(F)(F)F)c2c(C3CCC3)nn(-c3ccccc3)c2n1
**Result** 1.6

**Query** Please give the measured EC50 for this compound: CC(C)c1nn(-c2ccc(F)cc2)c2nc(C(=O)O)cc(N3CCN(C4CCN(C)CC4)CC3)c12
**Result** 1.67

**Query** Please give the measured EC50 for this compound: O=C(O)c1cc(O[C@@H]2CCOC2)c2c(C3CCC3)nn(-c3ccccc3)c2n1
**Result** 0.903
